# maps each entry to its log10 MIC
test system: Enterococcus faecalis; experiment: Antibacterial activity Enterococcus faecalis ATCC 29212 after 16 to 20 hr by broth microdilution method; assay type: functional
metric-name: log10 MIC (log10 of the value in µg/mL)

| smiles-code | measured |
| --- | --- |
| S=C1COc2ccccc2CN1c1ccccc1 | 2.00 |
| COc1cccc(N2Cc3ccccc3OCC2=S)c1 | 1.40 |
| Cc1cccc(N2Cc3ccccc3OCC2=S)c1 | 1.70 |
| O=[N+]([O-])c1cccc(N2Cc3ccccc3OCC2=S)c1 | 1.40 |
| COc1ccc(N2Cc3ccccc3OCC2=S)cc1 | 1.70 |
| S=C1COc2ccccc2CN1c1ccc(I)cc1 | 1.70 |
| Fc1ccc(N2Cc3ccccc3OCC2=S)cc1 | 1.70 |
| O=C(O)c1cn(C2CC2)c2cc(N3CCNCC3)c(F)cc2c1=O | -0.60 |
| CC1(C)S[C@@H]2[C@H](NC(=O)[C@H](N)c3ccccc3)C(=O)N2[C@H]1C(=O)O | -0.11 |
| Cc1ccc(N2Cc3ccccc3OCC2=S)cc1 | 1.40 |
| S=C1COc2ccccc2CN1c1ccc(Br)cc1 | 1.10 |
| CN(C)c1ccc(N2Cc3ccccc3OCC2=S)cc1 | 1.40 |

----------
tested on: Pseudomonas aeruginosa; assay: Antibacterial activity Pseudomonas aeruginosa ATCC 27853 after 16 to 20 hr by broth microdilution method; format: functional
# maps each entry to its MIC

| smiles-code | MIC |
| --- | --- |
| Cc1ccc(N2Cc3ccccc3OCC2=S)cc1 | 25 µg/mL |
| S=C1COc2ccccc2CN1c1ccc(Br)cc1 | 25 µg/mL |
| S=C1COc2ccccc2CN1c1cccc(Cl)c1 | 200 µg/mL |
| FC(F)(F)c1cccc(N2Cc3ccccc3OCC2=S)c1 | 50 µg/mL |
| Cc1cccc(N2Cc3ccccc3OCC2=S)c1 | 100 µg/mL |
| O=[N+]([O-])c1cccc(N2Cc3ccccc3OCC2=S)c1 | 25 µg/mL |
